B1: Histone H1t, residues 44 to 112; numbered along this chain, P22492 (parent)
chain: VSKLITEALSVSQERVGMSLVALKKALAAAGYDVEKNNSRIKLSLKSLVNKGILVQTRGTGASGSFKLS

# Variants of: B1
# MEASUREMENT_NOTES: abundance fitness (aPCA) (normalised: wild type 0, dead -1); higher = more abundant; growth selection in yeast, the domain comes from the species named
# CONDITION_DETAILS: Homo sapiens
MEASURED_METRIC: abundance fitness
Please reply with the value in numeric form only.

These solved cases illustrate the format of a correct answer.
MUTANT | abundance fitness
G59Q | -0.079
F66A | 0.008
S63Y | -0.204
A62D | 0.008
L23P | -0.885
L54K | -0.087
A26P | -0.906
G59C | -0.015
D33Q | 0.042
A26M | -0.033

Complete the entry with abundance fitness for `A22C`
-0.034

Indicate its recorded abundance fitness; the variant in question is `L43A`
0.18

Give the reported abundance fitness for this variant. `V55G`
0.056

Please indicate abundance fitness recorded for `S69M`
-0.186
